Each entry below lists one item and its recorded EC50 value.
Target: RAR gamma (Homo sapiens, UniProt P13631)
Sequence (P13631 1-454): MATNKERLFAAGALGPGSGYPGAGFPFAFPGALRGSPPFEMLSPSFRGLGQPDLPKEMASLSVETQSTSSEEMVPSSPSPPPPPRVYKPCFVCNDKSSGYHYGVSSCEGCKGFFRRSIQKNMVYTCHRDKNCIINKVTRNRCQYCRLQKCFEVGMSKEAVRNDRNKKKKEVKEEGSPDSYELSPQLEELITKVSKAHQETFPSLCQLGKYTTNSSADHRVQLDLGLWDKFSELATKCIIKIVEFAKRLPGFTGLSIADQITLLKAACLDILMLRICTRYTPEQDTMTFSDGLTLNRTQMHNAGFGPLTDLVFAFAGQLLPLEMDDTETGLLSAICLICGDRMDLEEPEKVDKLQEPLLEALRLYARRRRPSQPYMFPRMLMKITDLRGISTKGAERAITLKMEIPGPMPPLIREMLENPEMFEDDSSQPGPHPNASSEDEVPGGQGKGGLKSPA
Assay: SelectScreen Nuclear Profiling, agonist specificity for RAR gamma
endpoint-name: EC50 (nM)

{"compound": "CC1(C)CC=C(c2cnc3ccccc3c2)c2cc(C(=O)Nc3ccc(C(=O)O)cc3)ccc21 [BMS195614]", "endpoint-name": "EC50", "measured": 434}
{"compound": "CC1(C)CCSc2ccc(C#Cc3ccc(C(=O)O)cn3)cc21 [Tazarotenic, Tazarotenic acid]", "endpoint-name": "EC50", "measured": 1.1}
{"compound": "CC1(C)C(=O)C(C)(C)c2cc(C(=O)Nc3ccc(C(=O)O)cc3)ccc21 [BMS753]", "endpoint-name": "EC50", "measured": 136}
{"compound": "CC1(C)CC=C(C#Cc2ccccc2)c2cc(/C=C/c3ccc(C(=O)O)cc3)ccc21 [BMS493]", "endpoint-name": "EC50", "measured": 512}

====

Biological target: RAR gamma (Homo sapiens)
Sequence (P13631 1-454): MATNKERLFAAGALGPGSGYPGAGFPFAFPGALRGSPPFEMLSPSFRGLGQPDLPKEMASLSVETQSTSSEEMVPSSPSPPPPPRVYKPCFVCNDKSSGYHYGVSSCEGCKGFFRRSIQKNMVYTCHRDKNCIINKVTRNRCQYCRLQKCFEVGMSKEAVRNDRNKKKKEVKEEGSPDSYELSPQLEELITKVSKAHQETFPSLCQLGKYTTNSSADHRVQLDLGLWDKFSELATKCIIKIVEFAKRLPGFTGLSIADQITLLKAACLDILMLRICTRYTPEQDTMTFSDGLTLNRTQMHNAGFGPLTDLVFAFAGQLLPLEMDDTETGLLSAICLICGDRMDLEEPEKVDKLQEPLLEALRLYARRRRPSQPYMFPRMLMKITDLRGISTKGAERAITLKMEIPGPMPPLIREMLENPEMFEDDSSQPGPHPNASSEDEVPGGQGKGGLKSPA
Assay: SelectScreen Nuclear Profiling, agonist specificity for RAR gamma
Type: cell-based
Recorded RAR gamma % max values for a group of molecules are listed next.
endpoint-name: RAR gamma % max (%)

{"molecule": "CC1(C)CCSc2ccc(C#Cc3ccc(C(=O)O)cn3)cc21", "measured": 78.33}
{"molecule": "CC1(C)CCC(C)(C)c2cc(C(=O)Nc3ccc(C(=O)O)cc3)ccc21", "measured": 87.06}
{"molecule": "CC1(C)CCC(C)(C)c2cc(NC(=O)c3ccc(C(=O)O)cc3)ccc21", "measured": 106.1}
{"molecule": "CC1(C)CC=C(C#Cc2ccccc2)c2cc(/C=C/c3ccc(C(=O)O)cc3)ccc21", "measured": "−13.41"}
{"molecule": "CC1=C(/C=C/C(C)=C/C=C/C(C)=C/C(=O)O)C(C)(C)CCC1 [Tretinoin, all-trans retinoic acid]", "measured": 99.37}
{"molecule": "COc1ccc(-c2ccc3cc(C(=O)O)ccc3c2)cc1C12CC3CC(CC(C3)C1)C2", "measured": 87.7}
{"molecule": "CC1(C)C(=O)C(C)(C)c2cc(C(=O)Nc3ccc(C(=O)O)cc3)ccc21", "measured": 19.83}
{"molecule": "CC1(C)CC=C(c2cnc3ccccc3c2)c2cc(C(=O)Nc3ccc(C(=O)O)cc3)ccc21", "measured": "−14.57"}
